FYI, the data here is from patent US4089947A.

- Assay Text: pKa' (neutralization, in aqueous solution)
- Format: physicochemical
- Conditions: water
Recorded pKa for the following molecules
Lab note: record just the number, no unit beside it.

Prompt line: So what's the measured pKa for this one? OCC1=CC(NC2CC(CO)C(O)C(O)C2O)C(O)C(O)C1O (centres unmarked)
Response line: 6.2

More entries:
Prompt line: So what's the measured pKa for this one? OCC1=C[C@H](NC2C(O)C(O)C(O)C(CO)C2O)[C@H](O)[C@@H](O)[C@@H]1O (some centres unmarked)
Response line: 5

---

- Assay Text: Acute toxicity in mice, intravenous injection
- Format: in vivo
- Conditions: mouse, in vivo
Measure: LD50

Prompt line: So what's the measured LD50 for this one? OCC1=C[C@H](NC2C(O)C(O)C(O)C(CO)C2O)[C@H](O)[C@@H](O)[C@@H]1O (some centres unmarked) [Validoxylamine B]
Response line: > 2000 mg/kg

More entries:
Prompt line: So what's the measured LD50 for this one? OCC1=CC(NC2CC(CO)C(O)C(O)C2O)C(O)C(O)C1O (centres unmarked) [Validoxylamine A]
Response line: > 2000 mg/kg
